Consider the following molecules and their measured melting point readings.

// solved cases for melting point follow
• COc1cc(NC2=C(Cl)C(=O)c3ccccc3C2=O)ccc1S(=O)(=O)Nc1cccc(C)c1 = 286 to 288 °C
• CCCCN(CCCC)Cc1cc(NC(=O)Nc2c(C(C)C)cccc2C(C)C)n(Cc2ccccc2)n1 = 149 to 152 °C

The recorded melting point for entry CC(C)(C)C(=O)Nc1cccc(-c2ccnc3c(C(=O)c4ccco4)cnn23)c1 equals 203 to 204 °C

The recorded melting point for entry COc1cccc(C(=O)Nc2cc(C(=O)NCc3ccccc3)ccn2)c1 equals 95 to 96 °C

----------
measured-attribute: melting point

// solved cases for melting point follow
* CC(C)Cn1c(CONC(=O)NC(C)C)nc2c(N)nc3ccccc3c21 | 218 to 219 °C
* CCN(CC)CCNC(=O)c1cc(Cl)c(N)cc1OCC(OC)OC | 64 to 67 °C

The recorded melting point for entry CCOP(=O)(Cc1ccc(C(=S)Nc2nc3c(s2)Cc2c(Cl)cccc2-3)cc1)OCC equals 180 °C

The recorded melting point for entry O=C(NNS(=O)(=O)c1ccccc1)c1cccc2cccnc12 equals 173 to 175 °C

----------
Consider the following compounds and their measured melting point readings.

- COCN1C(C)=C(C(=O)OCOC(=O)C(C)(C)C)C(c2ccccc2)C(C(=O)OCOC(=O)C(C)(C)C)=C1C: 89 to 90 °C

The recorded melting point for entry CCSC1CCC(=O)N1S(=O)(=O)c1ccccc1 (stereo not given) equals 100 to 113 °C

The recorded melting point for entry C=C1C(O)C(CO)OC1n1cc(I)c(N)nc1=O (stereo not given) equals 159 to 161 °C

The recorded melting point for entry OCCCNc1ccnc(Cl)n1 equals 113 to 114 °C

The recorded melting point for entry CCCCN1CCC(NS(=O)(=O)c2ccc(Nc3ccnc4cc(Cl)ccc34)cc2)CC1 equals 190 to 191 °C

The recorded melting point for entry CNC(=O)c1[nH]c2ccccc2c1Sc1ccccc1 equals 201 to 204 °C

The recorded melting point for entry C=CCc1cc2c(C)c(Br)c(=O)oc2c(C)c1O equals 189 to 190 °C

The recorded melting point for entry Oc1cccc(C2CCCN(CCCc3ccccc3)C2)c1 (stereo not given) equals 119 to 120 °C

The recorded melting point for entry CN1CC(C[N+]2([O-])CC(=O)NC2=O)CC2c3cccc4[nH]cc(c34)CC21 (stereo not given) equals 163 to 165 °C

The recorded melting point for entry CS(=O)(=O)Nc1cccc(OCCCN2CCC(OC(c3ccccc3)c3ccccc3)CC2)c1 equals 90 to 95.5 °C

The recorded melting point for entry c1ccc(Sc2ccc(-c3ccccc3)s2)cc1 equals 72.5 to 74.5 °C

The recorded melting point for entry CCOC(=O)c1c(C)nn(C)c1CCl equals 81 to 83 °C

The recorded melting point for entry CC(=O)N1CCN=C1Nc1ccnn1-c1cccc(C(F)(F)F)c1 equals 194 to 197 °C

The recorded melting point for entry CNC(=O)[C@@H]1C[C@H](SCc2ccc(OC)cc2)CN1C equals 82 to 84 °C

The recorded melting point for entry COc1ccc(C(O)(c2ccc3nc(Cl)nc(-c4cccc(Cl)c4)c3c2)c2cncn2C)cc1 (stereo not given) equals 144 °C

The recorded melting point for entry Cc1nc(SCc2ncccc2C(=O)O)sc1CC(=O)O equals 225 to 227 °C
